Listing: LD50 of selected molecules
Experiment: acute toxicity, LD 50, CD 1 mice
Format: in vivo
Details: mouse, in vivo, intravenous, read-out: Acute toxicity for mice LD 50, intravenous
Structures can show the parent of a compound that is named as a salt.
endpoint.name: LD50 (mg/kg)

[[record]]
molecule = "CNc1nc(OC)c(SC)c(N2CCN(C)CC2)n1 [Example 17, hydrochloride]"
endpoint_value = 58

[[record]]
molecule = "COCCCNc1nc(Cl)c(SC)c(N2CCN(C)CC2)n1"
endpoint_value = 56

[[record]]
molecule = "CCCOc1nc(NC)nc(N2CCN(C)CC2)c1SC [Example 18, hydrochloride]"
endpoint_value = 63

[[record]]
molecule = "CCCCNc1nc(Cl)c(SC)c(N2CCN(C)CC2)n1"
endpoint_value = 98

[[record]]
molecule = "CCCCCNc1nc(Cl)c(SC)c(N2CCN(C)CC2)n1"
endpoint_value = 87

[[record]]
molecule = "C=CCNc1nc(Cl)c(SC)c(N2CCN(C)CC2)n1"
endpoint_value = 46

[[record]]
molecule = "CSc1c(Cl)nc(NCc2ccccc2)nc1N1CCN(C)CC1"
endpoint_value = 85

[[record]]
molecule = "CSc1c(Cl)nc(N(C)c2ccccc2)nc1N1CCN(C)CC1 [Example 12, hydrochloride]"
endpoint_value = 113

[[record]]
molecule = "CCNc1nc(Cl)c(SC)c(N2CCN(C)CC2)n1 [Example 1, hydrochloride]"
endpoint_value = 41

[[record]]
molecule = "CCN(CC)c1nc(Cl)c(SC)c(N2CCN(C)CC2)n1 [Example 15, dihydrobromide]"
endpoint_value = 123

[[record]]
molecule = "CSc1c(Cl)nc(N(C)C(=O)c2ccccc2)nc1N1CCN(C)CC1 [Example 13, hydrochloride]"
endpoint_value = 91

[[record]]
molecule = "CSc1c(Cl)nc(N2CCOCC2)nc1N1CCN(C)CC1"
endpoint_value = 110

[[record]]
molecule = "COc1ccc(Nc2nc(Cl)c(SC)c(N3CCN(C)CC3)n2)cc1"
endpoint_value = 83

[[record]]
molecule = "CSc1c(Cl)nc(NC(C)(C)C)nc1N1CCN(C)CC1"
endpoint_value = 67

[[record]]
molecule = "CSc1c(Cl)nc(NC(C)C)nc1N1CCN(C)CC1"
endpoint_value = 79

[[record]]
molecule = "CSc1c(Cl)nc(N2CCN(C)CC2)nc1N1CCN(C)CC1 [Example 9, hydrochloride]"
endpoint_value = 83

[[record]]
molecule = "CNc1nc(Cl)c(SC)c(N2CCN(CCO)CC2)n1"
endpoint_value = 124

[[record]]
molecule = "CNc1nc(Cl)c(SC)c(N2CCNCC2)n1 [Example 10, hydrochloride]"
endpoint_value = 57

[[record]]
molecule = "CSc1c(Cl)nc(N)nc1N1CCN(C)CC1 [Example 6, hydrochloride]"
endpoint_value = 33

[[record]]
molecule = "CCCNc1nc(Cl)c(SC)c(N2CCN(C)CC2)n1"
endpoint_value = 60

[[record]]
molecule = "CSc1c(Cl)nc(NCCO)nc1N1CCN(C)CC1"
endpoint_value = 89

[[record]]
molecule = "C=CCOc1nc(NC)nc(N2CCN(C)CC2)c1SC [Example 19, hydrochloride]"
endpoint_value = 56

[[record]]
molecule = "CSc1c(Cl)nc(N2CCCCC2)nc1N1CCN(C)CC1 [Example 11, hydrochloride]"
endpoint_value = 115

[[record]]
molecule = "CCCCCCNc1nc(Cl)c(SC)c(N2CCN(C)CC2)n1"
endpoint_value = 70

[[record]]
molecule = "CSc1c(Cl)nc(NC2CCCCC2)nc1N1CCN(C)CC1"
endpoint_value = 89


* * *

Tested on: isolated duodenum of the rabbit (barium chloride)
Assay: spasmolytic effect on isolated duodenum, barium chloride spasm
Assay type: cell-based
Conditions: Oryctolagus cuniculus, read-out: Spasmolytic effects EC 50 with respect to barium chloride
Where a name gives a salt, the structure may show the parent alone.
Flag rule - EC50 less than 1 µg/mL flags Satisfied; the remaining entries get Not satisfied.

[[record]]
molecule = "CSc1c(Cl)nc(N2CCOCC2)nc1N1CCN(C)CC1"
answer_label = "Not satisfied"

[[record]]
molecule = "CSc1c(Cl)nc(N(C)C(=O)c2ccccc2)nc1N1CCN(C)CC1 [Example 13, hydrochloride]"
answer_label = "Not satisfied"

[[record]]
molecule = "CCCOc1nc(NC)nc(N2CCN(C)CC2)c1SC [Example 18, hydrochloride]"
answer_label = "Not satisfied"

[[record]]
molecule = "CCCCCCNc1nc(Cl)c(SC)c(N2CCN(C)CC2)n1"
answer_label = "Satisfied"

[[record]]
molecule = "CCN(CC)c1nc(Cl)c(SC)c(N2CCN(C)CC2)n1 [Example 15, dihydrobromide]"
answer_label = "Not satisfied"

[[record]]
molecule = "C=CCOc1nc(NC)nc(N2CCN(C)CC2)c1SC [Example 19, hydrochloride]"
answer_label = "Not satisfied"

[[record]]
molecule = "CCCCCNc1nc(Cl)c(SC)c(N2CCN(C)CC2)n1"
answer_label = "Satisfied"

[[record]]
molecule = "CSc1c(Cl)nc(N2CCN(C)CC2)nc1N1CCN(C)CC1 [Example 9, hydrochloride]"
answer_label = "Not satisfied"

[[record]]
molecule = "CSc1c(Cl)nc(NCCO)nc1N1CCN(C)CC1"
answer_label = "Not satisfied"

[[record]]
molecule = "CNc1nc(Cl)c(SC)c(N2CCN(CCO)CC2)n1"
answer_label = "Not satisfied"

[[record]]
molecule = "CCCNc1nc(Cl)c(SC)c(N2CCN(C)CC2)n1"
answer_label = "Satisfied"

[[record]]
molecule = "CSc1c(Cl)nc(NC(C)C)nc1N1CCN(C)CC1"
answer_label = "Not satisfied"

[[record]]
molecule = "CSc1c(Cl)nc(NCc2ccccc2)nc1N1CCN(C)CC1"
answer_label = "Satisfied"

[[record]]
molecule = "CSc1c(Cl)nc(N2CCCCC2)nc1N1CCN(C)CC1 [Example 11, hydrochloride]"
answer_label = "Not satisfied"

[[record]]
molecule = "CCCCNc1nc(Cl)c(SC)c(N2CCN(C)CC2)n1"
answer_label = "Satisfied"

[[record]]
molecule = "CSc1c(Cl)nc(NC(C)(C)C)nc1N1CCN(C)CC1"
answer_label = "Satisfied"

[[record]]
molecule = "CSc1c(Cl)nc(NC2CCCCC2)nc1N1CCN(C)CC1"
answer_label = "Satisfied"

[[record]]
molecule = "CCNc1nc(Cl)c(SC)c(N2CCN(C)CC2)n1 [Example 1, hydrochloride]"
answer_label = "Not satisfied"

[[record]]
molecule = "COCCCNc1nc(Cl)c(SC)c(N2CCN(C)CC2)n1"
answer_label = "Not satisfied"

[[record]]
molecule = "CSc1c(Cl)nc(N(C)c2ccccc2)nc1N1CCN(C)CC1 [Example 12, hydrochloride]"
answer_label = "Not satisfied"


* * *

Assay: solubility
Assay type: physicochemical
Conditions: ethanol / alcohol
endpoint.name: solubility in ethanol (alcohol)

[[record]]
compound = "CCCCNc1nc(Cl)c(SC)c(N2CCN(C)CC2)n1 [Example 31]"
endpoint_value = "soluble"

[[record]]
compound = "CCCNc1nc(Cl)c(SC)c(N2CCN(C)CC2)n1 [Example 30]"
endpoint_value = "soluble"

[[record]]
compound = "CSc1c(Cl)nc(NCCO)nc1N1CCN(C)CC1 [Example 22]"
endpoint_value = "soluble"

[[record]]
compound = "CCCCN1CCN(c2nc(N3CCOCC3)nc(Cl)c2SC)CC1 [Example 29]"
endpoint_value = "soluble"

[[record]]
compound = "CCCCCCNc1nc(Cl)c(SC)c(N2CCN(C)CC2)n1 [Example 25]"
endpoint_value = "very soluble"

[[record]]
compound = "CSc1c(Cl)nc(NC2CCCCC2)nc1N1CCN(C)CC1 [Example 23]"
endpoint_value = "soluble"

[[record]]
compound = "CCCCCNc1nc(Cl)c(SC)c(N2CCN(C)CC2)n1 [Example 24]"
endpoint_value = "very soluble"

[[record]]
compound = "CSc1c(Cl)nc(N2CCOCC2)nc1N1CCN(C)CC1 [Example 28]"
endpoint_value = "soluble"

[[record]]
compound = "C=CCNc1nc(Cl)c(SC)c(N2CCN(C)CC2)n1 [Example 21]"
endpoint_value = "soluble"


* * *

System: dogs
Experiment: anti-emetic activity, apomorphine vomiting test on dogs
Type: in vivo
Settings: Canis lupus familiaris, po, dogs, orally, apomorphine; read-out: Anti-emetic activity on dogs ED 50
endpoint.name: ED50

[[record]]
smi = "CSc1c(Cl)nc(N2CCOCC2)nc1N1CCN(C)CC1"
endpoint_value = "> 5 mg/kg"

[[record]]
smi = "CCCCNc1nc(Cl)c(SC)c(N2CCN(C)CC2)n1"
endpoint_value = "~3 mg/kg"

[[record]]
smi = "CCCCN1CCN(c2nc(N3CCOCC3)nc(Cl)c2SC)CC1"
endpoint_value = "> 5 mg/kg"

[[record]]
smi = "CSc1c(Cl)nc(NCc2ccccc2)nc1N1CCN(C)CC1"
endpoint_value = "~2 mg/kg"

